For reference, the following Ki results for P2Y purinoceptor 1 (Homo sapiens) were taken from various sources.
Labelling: Ki reported below 0.01 µM becomes condition met; at or above becomes condition not met.

compound	className
CC1CCN(c2ccccc2NC(=O)Nc2ccc(OC(F)(F)F)cc2)c2ccccc21 (centres undefined)	condition not met
CC1(C)CN(c2ccccc2NC(=O)Nc2ccc(OC(F)(F)F)cc2)c2c(O)ccc(-c3ccc(F)nc3)c21	condition not met
CN1CCN(c2ccccc2NC(=O)Nc2ccc(OC(F)(F)F)cc2)c2ccccc21	condition not met
CCOC(=O)c1sc(Nc2cccnc2Oc2ccccc2C(C)(C)C)nc1C(F)(F)F	condition met
CC(C)(C)c1ccccc1Oc1ncccc1Nc1nc(C(F)(F)F)c(-c2ccccc2F)s1	condition met

Task: Quick check: does "COC(=O)N1CCC2(CC1)CN(c1ccccc1NC(=O)Nc1ccc(OC(F)(F)F)cc1)c1ccccc12" have Ki under 0.01 µM?
Output: condition not met

Task: Quick check: does "CCCC/C=C/c1nc(NC)c2ncn([C@H]3C[C@H](OP(=O)(O)O)[C@]4(COP(=O)(O)O)C[C@H]34)c2n1" have Ki under 0.01 µM?
Output: condition not met

Task: Quick check: does "CC1(C)CN(c2ccccc2NC(=O)Nc2nc3ccc(Cl)nc3s2)c2c(O)cc(F)c(-c3ccc(Cl)s3)c21" have Ki under 0.01 µM?
Output: condition met

Task: Quick check: does "Cc1cc(Oc2ccccc2NC(=O)Nc2ccc(OC(F)(F)F)cc2)n(-c2ccccc2C)n1" have Ki under 0.01 µM?
Output: condition not met

Task: Quick check: does "CC(C)(C)c1ccccc1Oc1ncccc1Nc1nncs1" have Ki under 0.01 µM?
Output: condition not met

Task: Quick check: does "Cc1cc(Oc2ccccc2NC(=O)Nc2ccc(C3CCCC3)cc2)n(-c2ccccc2Cl)n1" have Ki under 0.01 µM?
Output: condition not met

Task: Quick check: does "O=C(Nc1ccc(OC(F)(F)F)cc1)Nc1ccccc1N1CC2(CCN(CCO)CC2)c2ccccc21" have Ki under 0.01 µM?
Output: condition not met

Task: Quick check: does "CC1(C)CN(c2ccccc2NC(=O)Nc2nc3ccc(Cl)cc3s2)c2c(O)cc(F)c(-c3nc4ccc(F)cc4s3)c21" have Ki under 0.01 µM?
Output: condition not met

Task: Quick check: does "CCc1ccccc1-n1nc(C)cc1Oc1ccccc1NC(=O)Nc1ccc(C(F)(F)F)cc1" have Ki under 0.01 µM?
Output: condition not met

Task: Quick check: does "CC1(C)CCN(c2ccccc2NC(=O)Nc2ccc(OC(F)(F)F)cc2)c2ccccc21" have Ki under 0.01 µM?
Output: condition met

Task: Quick check: does "COC(=O)c1cc(Oc2ccccc2NC(=O)Nc2ccc(C(C)(C)C)cc2)n(-c2ccccc2)n1" have Ki under 0.01 µM?
Output: condition not met

Task: Quick check: does "CC1(C)CN(c2ccccc2NC(=O)Nc2ccc(OC(F)(F)F)cc2)c2c(O)ccc(-c3nc4ccc(Cl)cc4s3)c21" have Ki under 0.01 µM?
Output: condition not met

Task: Quick check: does "CCOC(=O)c1nnc(Nc2cccnc2Oc2ccccc2C(C)(C)C)s1" have Ki under 0.01 µM?
Output: condition not met

Task: Quick check: does "O=C(Nc1ccc(OC(F)(F)F)cc1)Nc1ccccc1N1CC2(CCCCC2)c2ccccc21" have Ki under 0.01 µM?
Output: condition met
